- Test system: MDA-MB-231 breast
- ASSAY TEXT: NCI-60 one-dose screen, 48 h (100 = growth as untreated, 0 = no growth, -100 = all killed)
- CONDITION CONTEXT: 10 µM unless noted
This is part of a sample that, as a whole, favours compounds with a hit. Of some 83,000 tested, about 20% had one in any assay.
RESULT TYPE: growth (%)
The answer is to be given in %; state only the numeric part.

Below, 4 molecules whose answers are already recorded.
Measured growth of Clc1nc2ccccc2nc1-c1nnc(C2CCCCC2)o1 : 105

Measured growth of O=C(O)c1ccc(-n2cc(CNc3cccc(Cl)c3)c(-c3ccc(F)cc3)n2)cc1 : 91.7

Kindly note the recorded growth for CCC(CC)N1C(=O)/C(=c2\sc3n(c2=O)NC2C(N=3)N(CC)C(=O)N2CC)c2ccccc21 (stereo not given) , which is 53.2

growth reported for this molecule C=CCn1c(SCC(=O)Nc2ccc(C(=O)/C=C/c3cc(OC)c(OC)c(OC)c3)cc2)nnc1-c1c[nH]c2ccccc12 : 23

Continue with the next molecule.
For COc1ccc(/C=C/C(=O)c2cccc(NC(=O)CSc3nc4ccccc4c(=O)n3-c3ccccc3)c2)cc1OC the molecule record lists growth as 97.3

Origin of values: PubChem BioAssay (NCI)
